# ASSAY_INFO: Metabolic stability in dog liver microsomes after 30 mins by LC-ESI/MS analysis
# Assay type: ADME, Canis lupus familiaris, Microsome
# EXPERIMENTAL_CONTEXT: read-out: Stability
VALUE_TYPE: remaining at 0.5 h (%)

>>> reading("COc1ccc(O[C@@H](CC(C)C)[C@H]2CCNC2)c(C)n1")
57

* * *

# ASSAY_INFO: AUC (0 to infinity) in dog at 1 mg/kg, iv
# Type: ADME, organism-based, Canis lupus familiaris
# Parameters: dose 1 mg/kg, route intravenous, time infinity
# EXPERIMENTAL_CONTEXT: plasma
VALUE_TYPE: AUC(0-inf)

>>> reading("COc1ccc(O[C@@H](CC(C)C)[C@H]2CCNC2)c(C)n1")
"8.09 µM·h"

* * *

# ASSAY_INFO: Oral bioavailability in dog at 1 mg/kg
# Type: ADME, organism-based, Canis lupus familiaris
# EXPERIMENTAL_CONTEXT: in vivo
VALUE_TYPE: bioavailability (%)

>>> reading("COc1ccc(O[C@@H](CC(C)C)[C@H]2CCNC2)c(C)n1")
47

* * *

# TARGET_OF_ASSAY: Cytochrome P450 2C9 (Homo sapiens, UniProt P11712)
VALUE_TYPE: IC50

>>> reading("COc1ccc(O[C@@H](CC(C)C)[C@H]2CCNC2)c(C)n1")
"> 10 µM"

* * *

# TARGET_OF_ASSAY: CYP2C9 (Homo sapiens, UniProt P11712)
# Sequence (P11712 whole entry): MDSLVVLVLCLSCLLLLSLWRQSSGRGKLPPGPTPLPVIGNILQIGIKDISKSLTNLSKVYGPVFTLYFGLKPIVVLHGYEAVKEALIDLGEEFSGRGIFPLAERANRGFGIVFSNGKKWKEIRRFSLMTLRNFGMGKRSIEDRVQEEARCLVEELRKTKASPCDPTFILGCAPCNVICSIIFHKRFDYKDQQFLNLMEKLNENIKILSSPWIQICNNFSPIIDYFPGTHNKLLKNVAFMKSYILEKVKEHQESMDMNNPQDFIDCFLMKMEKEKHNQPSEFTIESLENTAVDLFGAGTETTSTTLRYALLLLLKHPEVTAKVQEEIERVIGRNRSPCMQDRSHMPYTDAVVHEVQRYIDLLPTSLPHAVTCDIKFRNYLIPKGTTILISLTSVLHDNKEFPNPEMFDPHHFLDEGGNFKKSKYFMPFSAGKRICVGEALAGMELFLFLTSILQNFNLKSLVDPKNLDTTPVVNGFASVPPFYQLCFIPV
# ASSAY_INFO: Inhibition of CYP2C9 (unknown origin) at 10 uM
# Type: ADME
VALUE_TYPE: inhibition at 10 µM

>>> reading("COc1ccc(O[C@@H](CC(C)C)[C@H]2CCNC2)c(C)n1")
"< 30%"

* * *

# ASSAY_INFO: Volume of distribution at steady state in rat at 1 mg/kg, iv
# Assay type: ADME, organism-based
# Parameters: dose 1 mg/kg, route intravenous
# EXPERIMENTAL_CONTEXT: in vivo, read-out: Vdss
VALUE_TYPE: Vd (L/kg)

>>> reading("COc1ccc(O[C@@H](CC(C)C)[C@H]2CCNC2)c(C)n1")
7.6

* * *

# ASSAY_INFO: Half life in rat at 1 mg/kg, iv
# Format: ADME, organism-based
# Design: dose 1 mg/kg, route intravenous
# EXPERIMENTAL_CONTEXT: in vivo
VALUE_TYPE: half-life (min)

>>> reading("COc1ccc(O[C@@H](CC(C)C)[C@H]2CCNC2)c(C)n1")
50.4

* * *

# TARGET_OF_ASSAY: CYP2D6 (Homo sapiens, UniProt P10635)
# Sequence (P10635 whole entry): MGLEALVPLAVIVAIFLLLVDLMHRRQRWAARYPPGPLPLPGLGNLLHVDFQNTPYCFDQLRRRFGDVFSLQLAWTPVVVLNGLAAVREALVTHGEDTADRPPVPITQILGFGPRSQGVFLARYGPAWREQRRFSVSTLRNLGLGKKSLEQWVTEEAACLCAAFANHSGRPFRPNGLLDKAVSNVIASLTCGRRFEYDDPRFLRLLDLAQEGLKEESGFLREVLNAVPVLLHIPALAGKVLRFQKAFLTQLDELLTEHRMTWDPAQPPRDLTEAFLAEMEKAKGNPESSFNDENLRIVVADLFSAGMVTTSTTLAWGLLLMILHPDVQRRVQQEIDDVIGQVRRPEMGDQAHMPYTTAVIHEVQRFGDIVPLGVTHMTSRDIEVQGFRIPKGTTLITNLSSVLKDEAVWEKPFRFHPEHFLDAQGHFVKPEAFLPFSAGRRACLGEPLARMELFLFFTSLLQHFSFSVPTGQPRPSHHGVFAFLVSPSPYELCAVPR
# ASSAY_INFO: Inhibition of CYP2D6 (unknown origin) at 10 uM
# Type: ADME
VALUE_TYPE: inhibition at 10 µM

>>> reading("COc1ccc(O[C@@H](CC(C)C)[C@H]2CCNC2)c(C)n1")
"< 30%"

* * *

# ASSAY_INFO: AUC (0 to infinity) in dog at 1 mg/kg, po
# Type: ADME, organism-based, Canis lupus familiaris
# Set-up: time infinity, dose 1 mg/kg, route oral
# EXPERIMENTAL_CONTEXT: plasma
VALUE_TYPE: AUC(0-inf) (µM·h)

>>> reading("COc1ccc(O[C@@H](CC(C)C)[C@H]2CCNC2)c(C)n1")
4.13

* * *

# ASSAY_INFO: AUC (0 to infinity) in rat at 1 mg/kg, iv
# Format: ADME, organism-based
# Set-up: time infinity, dose 1 mg/kg, route intravenous
# EXPERIMENTAL_CONTEXT: plasma
VALUE_TYPE: AUC(0-inf) (µM·h)

>>> reading("COc1ccc(O[C@@H](CC(C)C)[C@H]2CCNC2)c(C)n1")
0.6

* * *

# TARGET_OF_ASSAY: Cytochrome P450 3A4 (Homo sapiens, UniProt P08684)
# Sequence (P08684 whole entry): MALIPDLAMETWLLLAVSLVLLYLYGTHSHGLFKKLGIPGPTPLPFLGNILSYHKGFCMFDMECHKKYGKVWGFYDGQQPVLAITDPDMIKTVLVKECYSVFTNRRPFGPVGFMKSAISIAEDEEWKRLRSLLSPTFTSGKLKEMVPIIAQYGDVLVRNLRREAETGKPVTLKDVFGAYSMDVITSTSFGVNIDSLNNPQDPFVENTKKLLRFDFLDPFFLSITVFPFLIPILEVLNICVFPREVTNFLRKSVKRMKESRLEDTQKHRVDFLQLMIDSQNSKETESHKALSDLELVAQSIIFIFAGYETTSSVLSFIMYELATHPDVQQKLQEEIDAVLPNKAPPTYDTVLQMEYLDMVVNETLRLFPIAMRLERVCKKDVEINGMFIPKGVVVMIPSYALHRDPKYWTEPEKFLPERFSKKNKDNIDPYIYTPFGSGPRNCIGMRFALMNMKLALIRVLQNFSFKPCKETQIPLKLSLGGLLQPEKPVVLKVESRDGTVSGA
pIC50: −log10 of the molar value.
VALUE_TYPE: pIC50

>>> reading("COc1ccc(O[C@@H](CC(C)C)[C@H]2CCNC2)c(C)n1")
"< 5.00"

* * *

# ASSAY_INFO: Tmax in dog at 1 mg/kg, po
# Format: ADME, organism-based, Canis lupus familiaris
# Parameters: dose 1 mg/kg, route oral
# EXPERIMENTAL_CONTEXT: in vivo
VALUE_TYPE: Tmax

>>> reading("COc1ccc(O[C@@H](CC(C)C)[C@H]2CCNC2)c(C)n1")
"1.3 h"

* * *

Entries and their Ki values follow.
# TARGET_OF_ASSAY: Sodium-dependent serotonin transporter (Rattus norvegicus)
# Sequence (P31652 whole entry): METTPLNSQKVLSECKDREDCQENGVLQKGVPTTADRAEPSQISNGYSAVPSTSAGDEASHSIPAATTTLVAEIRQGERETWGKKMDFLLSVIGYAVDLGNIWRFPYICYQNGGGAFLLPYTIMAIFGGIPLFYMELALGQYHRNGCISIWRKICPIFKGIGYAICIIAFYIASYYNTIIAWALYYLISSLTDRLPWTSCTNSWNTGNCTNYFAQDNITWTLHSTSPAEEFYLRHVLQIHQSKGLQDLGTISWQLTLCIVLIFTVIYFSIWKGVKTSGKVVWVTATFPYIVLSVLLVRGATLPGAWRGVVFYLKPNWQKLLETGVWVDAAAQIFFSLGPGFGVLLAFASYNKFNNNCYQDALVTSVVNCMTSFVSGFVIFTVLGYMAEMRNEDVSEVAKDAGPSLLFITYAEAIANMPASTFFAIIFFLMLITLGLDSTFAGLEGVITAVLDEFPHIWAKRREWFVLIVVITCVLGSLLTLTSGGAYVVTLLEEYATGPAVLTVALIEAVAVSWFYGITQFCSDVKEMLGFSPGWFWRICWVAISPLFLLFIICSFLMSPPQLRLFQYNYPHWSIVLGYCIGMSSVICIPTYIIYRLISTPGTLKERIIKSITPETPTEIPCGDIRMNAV
VALUE_TYPE: Ki (nM)

>>> reading("COc1ccc(O[C@@H](CC(C)C)[C@H]2CCNC2)c(C)n1")
0.16
>>> reading("CCN(CC)C(=O)C1(c2ccccc2)CC1CN (configuration not stated)")
27

* * *

# ASSAY_INFO: Volume of distribution at steady state in dog at 1 mg/kg, iv
# Format: ADME, organism-based, Canis lupus familiaris
# Parameters: dose 1 mg/kg, route intravenous
# EXPERIMENTAL_CONTEXT: in vivo, read-out: Vdss
VALUE_TYPE: Vd (L/kg)

>>> reading("COc1ccc(O[C@@H](CC(C)C)[C@H]2CCNC2)c(C)n1")
1.8

* * *

So I've got Ki readings for Sodium-dependent dopamine transporter (Homo sapiens, UniProt Q01959), take a look.
VALUE_TYPE: Ki (nM)

>>> reading("COc1ccc(O[C@@H](CC(C)C)[C@H]2CCNC2)c(C)n1 (stereo in doubt; form 1)")
475
>>> reading("COc1ccc(O[C@@H](CC(C)C)[C@H]2CCNC2)c(C)n1 (stereo in doubt; form 2)")
354

* * *

# System: Brain
# ASSAY_INFO: Drug uptake in Sprague-Dawley rat brain at 10 mg/kg, po
# Assay type: ADME, organism-based
# Design: dose 10 mg/kg, route oral
# EXPERIMENTAL_CONTEXT: in vivo, read-out: Drug uptake
VALUE_TYPE: concentration (nM)

>>> reading("COc1ccc(O[C@@H](CC(C)C)[C@H]2CCNC2)c(C)n1")
450

* * *

# TARGET_OF_ASSAY: Sodium-dependent serotonin transporter (Homo sapiens)
# Sequence (P31645 whole entry): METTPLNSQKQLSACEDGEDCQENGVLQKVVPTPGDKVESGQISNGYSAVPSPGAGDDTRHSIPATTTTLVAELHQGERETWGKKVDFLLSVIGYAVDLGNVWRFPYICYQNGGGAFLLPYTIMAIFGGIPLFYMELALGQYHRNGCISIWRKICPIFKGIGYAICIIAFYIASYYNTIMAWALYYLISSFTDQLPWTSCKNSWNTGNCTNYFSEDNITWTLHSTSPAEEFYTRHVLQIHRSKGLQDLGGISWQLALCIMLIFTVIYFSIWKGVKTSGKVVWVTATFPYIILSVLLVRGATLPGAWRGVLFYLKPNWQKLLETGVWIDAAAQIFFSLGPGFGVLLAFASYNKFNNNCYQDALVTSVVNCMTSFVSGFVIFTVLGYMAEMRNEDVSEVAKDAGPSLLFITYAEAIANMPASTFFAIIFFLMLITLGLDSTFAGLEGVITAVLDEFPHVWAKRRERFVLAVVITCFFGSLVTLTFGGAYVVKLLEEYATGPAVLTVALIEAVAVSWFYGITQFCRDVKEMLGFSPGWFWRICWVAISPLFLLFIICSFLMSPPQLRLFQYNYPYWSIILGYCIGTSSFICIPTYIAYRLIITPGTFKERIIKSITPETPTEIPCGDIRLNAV
# ASSAY_INFO: biochemical
# Description: Displacement of [3H]citalopram from human SERT transfected in HEK293 cells after 3 hrs by Wallac counting analysis
VALUE_TYPE: IC50

>>> reading("COc1ccc(O[C@@H](CC(C)C)[C@H]2CCNC2)c(C)n1")
"1.9 nM"

* * *

# ASSAY_INFO: Ratio of drug uptake in brain to plasma in Sprague-Dawley rat at 10 mg/kg, po
# Assay type: ADME, organism-based
# Parameters: dose 10 mg/kg, route oral
# EXPERIMENTAL_CONTEXT: read-out: BPR
VALUE_TYPE: Kp

>>> reading("COc1ccc(O[C@@H](CC(C)C)[C@H]2CCNC2)c(C)n1")
3

* * *

# ASSAY_INFO: Metabolic stability in rat liver microsomes after 30 mins by LC-ESI/MS analysis
# Type: ADME, Microsome
# EXPERIMENTAL_CONTEXT: read-out: Stability
VALUE_TYPE: remaining at 0.5 h (%)

>>> reading("COc1ccc(O[C@@H](CC(C)C)[C@H]2CCNC2)c(C)n1")
92

* * *

# TARGET_OF_ASSAY: Cytochrome P450 1A2 (Homo sapiens, UniProt P05177)
# Sequence (P05177 whole entry): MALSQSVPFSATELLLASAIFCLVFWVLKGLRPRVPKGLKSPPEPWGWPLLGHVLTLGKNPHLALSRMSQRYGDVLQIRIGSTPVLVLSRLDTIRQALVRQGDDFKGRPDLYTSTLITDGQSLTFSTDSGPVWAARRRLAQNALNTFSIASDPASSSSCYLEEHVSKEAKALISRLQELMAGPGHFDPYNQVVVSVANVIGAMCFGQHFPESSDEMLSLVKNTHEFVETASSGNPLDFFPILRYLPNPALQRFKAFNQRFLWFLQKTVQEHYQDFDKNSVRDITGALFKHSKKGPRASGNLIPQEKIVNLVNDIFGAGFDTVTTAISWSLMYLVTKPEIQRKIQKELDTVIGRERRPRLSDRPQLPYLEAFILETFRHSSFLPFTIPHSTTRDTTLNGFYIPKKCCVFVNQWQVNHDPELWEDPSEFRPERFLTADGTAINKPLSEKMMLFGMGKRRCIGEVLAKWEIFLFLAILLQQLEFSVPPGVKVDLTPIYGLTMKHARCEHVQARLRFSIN
# ASSAY_INFO: Inhibition of CYP1A2 (unknown origin)
# Type: ADME
pIC50: −log10 of the molar value.
VALUE_TYPE: pIC50

>>> reading("COc1ccc(O[C@@H](CC(C)C)[C@H]2CCNC2)c(C)n1")
"< 5.00"

* * *

# TARGET_OF_ASSAY: Sodium-dependent serotonin transporter (Homo sapiens)
Below, each entry is listed with its recorded Ki.
VALUE_TYPE: Ki (nM)

>>> reading("COc1ccc(O[C@@H](CC(C)C)[C@H]2CCNC2)c(C)n1 (stereo in doubt; form 2)")
0.21
>>> reading("COc1ccc(O[C@@H](CC(C)C)[C@H]2CCNC2)c(C)n1 (stereo in doubt; form 1)")
0.22

* * *

# ASSAY_INFO: Cmax in rat at 1 mg/kg, po
# Type: ADME, organism-based
# Set-up: dose 1 mg/kg, route oral
# EXPERIMENTAL_CONTEXT: in vivo
VALUE_TYPE: Cmax (nM)

>>> reading("COc1ccc(O[C@@H](CC(C)C)[C@H]2CCNC2)c(C)n1")
65
